# target under test: NS3 (West Nile virus)
# Sequence (K4FQI5 whole entry): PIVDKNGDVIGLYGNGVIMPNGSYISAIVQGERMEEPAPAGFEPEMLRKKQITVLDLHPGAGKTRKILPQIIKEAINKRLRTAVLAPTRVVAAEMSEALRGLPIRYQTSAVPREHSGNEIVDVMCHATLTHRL
# protocol description: Functional biochemical assay to identify treatments for viral infectious disease that targets West Nile NS2B-NS3 protease. Utilizing a direct enzyme activity measurement method, reading the fluorescence intensity is used to characterize the relative potency of inhibitors as IC50.
IC50 reference
measured endpoint: IC50

INSERT INTO measurements (test_smiles, assay_value) VALUES
  ('Cc1[nH]c2ccccc2c1CN1CCC(c2nc3ccccc3s2)CC1', '> 99.5 µM'),
  ('O=C(O)c1ccc(-c2cc(NC(=O)c3cc(F)cc4[nH]ncc34)cc3c2CNC3)cc1', '1.15 µM'),
  ('O=C(Nc1ccc2c(c1)CNC2)c1cccc2c1[C@]1(CCNC1)C(=O)N2', '1.62 µM'),
  ('O=C(Nc1cc2c(cc1Br)CNC2)c1cc(Cl)cc2[nH]ncc12', '2.73 µM'),
  ('Cn1cc(CNC(=O)[C@H](Nc2ccc3c(c2)CNC3)c2cc(Cl)cc(C3CC3)c2)cn1', '1.07 µM'),
  ('Cc1ncc(-c2cc(F)cc(C(=O)Nc3ccc4c(c3)CNC4)c2)s1', '2.28 µM'),
  ('CCc1cc2c(cc1NC(=O)c1cc(F)cc3[nH]ncc13)CNC2', '1.59 µM'),
  ('O=C(Nc1ccc2c(c1)CNC2)c1cc(Br)cc2[nH]c(C3CCOCC3)nc12', '> 99.5 µM'),
  ('O=C(Nc1ccc2c(c1)CNC2)c1cc(Cl)cc(-n2cccc2)c1', '12.9 µM'),
  ('O=C(Nc1ccc2c(c1)CNC2)c1cccc(-c2cnco2)c1', '38.4 µM'),
  ('N=C(N)NCc1ccc(NC(=O)Oc2ccccc2)cc1', '> 100 µM'),
  ('O=C(Nc1ccc2c(c1)CNC2)c1cc(Br)cc2[nH]ncc12', '12.9 µM'),
  ('CC(=O)Nc1cccc(C(=O)Nc2ccc3c(c2)CNC3)c1', '30.6 µM'),
  ('CCCCCC(=O)N[C@H](C(=O)Nc1ccc2[nH]ncc2c1)c1ccc(OCc2ccccc2)cc1', '> 99.5 µM'),
  ('O=C(O)c1cc2c(cc1NS(=O)(=O)c1ccc(Oc3ccccc3Cl)cc1)CCC2', '16.4 µM'),
  ('O=C(O)c1cc(Oc2ccc(F)cc2)c(F)cc1NS(=O)(=O)c1ccc(Oc2ccccc2Cl)cc1', '3.39 µM'),
  ('O=C(Nc1ccc2c(c1)CN[C@H]2C[C@H](O)CO)c1cc(Cl)cc2[nH]ncc12', '5.56 µM'),
  ('CSCCNC(=O)[C@H](Nc1ccc2c(c1)CNC2)c1cc(Cl)cc(C2CC2)c1', '0.514 µM'),
  ('O=C(Nc1ccc2c(c1)CNC2)c1cccc2c1[C@]1(CCN(C(=O)OCc3ccccc3)C1)C(=O)N2', '3.55 µM'),
  ('Cn1ncc2c(C(=O)Nc3ccc4c(c3)CNC4)cc(Cl)cc21', '1.88 µM'),
  ('N[C@H]1Cc2ccc(NC(=O)c3cc(Cl)cc(NC(=O)OCc4ccccc4)c3)cc2C1', '35.9 µM');
